molecular target: Adrenergic Receptor (beta 2 adrenergic receptor peptides) (Homo sapiens, UniProt P07550); test: Overall pattern of binding: Adrenergic Receptor peptides
Sequence (P07550 with tags, fused parts or gaps): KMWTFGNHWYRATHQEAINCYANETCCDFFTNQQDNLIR
quantity_measured: Kd

## Input Report Kd for OC[C@H]1OC(O)[C@H](O)[C@@H](O)[C@@H]1O (stereo partly shown)
## Output > 60 µM

----------
target: dopamine 1 receptor peptide D1DR 96–98 FCN (Homo sapiens, UniProt P21728)
Below is a list of entries, each paired with its recorded Kd value.
Please reply with the bare figure in µM and do not write the unit itself.

| molecule | units_label | Kd |
| --- | --- | --- |
| C=CCN1CC[C@]23c4c5ccc(O)c4O[C@H]2C(=O)CC[C@@]3(O)[C@H]1C5 [Naloxone, naloxone] | µM | 30 |

## Input Report Kd for N[C@@H](Cc1ccc(O)cc1)C(=O)O [Tyrosine, tyrosine]
## Output 22
